These data points were gathered from PubChem BioAssay (NCATS).

- Procedure Summary: Drug repurposing screens with cells derived from glioblastoma tumor samples (AID 1345199); further: on the % scale 0 is the no-effect control and ±100 the full control effect
- Stated Conditions: GBM patient neurospheres viability, ATP luminescence, 48 h; at 45.9 µM (top of the series); tumour line B
Inconclusive results are not listed.

{"columns": ["Compound", "Scale Unit", "activity, negative = cell killing"],
 "data": [
  ["CCOC(=O)CN[C@@H](C(=O)N1CC[C@H]1C(=O)NCc1ccc(/C(N)=N/O)cc1)C1CCCCC1", "%", -9.76],
  ["CN(CC(=O)N1CCOCC1)Cc1c(Cl)cccc1NC(=O)c1ccccc1", "%", -3.67],
  ["C[N+]1(C)CCN(CC(O)(c2ccccc2)C2CCCCC2)CC1 (stereo not drawn)", "%", 4.18]
]}
